A collection of molecules and their measured intrinsic clearance, human liver microsomes

Please review the following examples before continuing.
molecule | result
Cc1ccc(C)c(OCCN(C)C(=O)c2ccc3c(c2)nnn3C)c1 | 59.5 mL/min/kg
CC(C)c1ccc(NC(=O)Cn2cnc3c2c(=O)n(C)c(=O)n3C)cc1 | 16.1 mL/min/kg
c1ccc(-c2c(-c3ccc(OCCN4CCCC4)cc3)[nH]c3ncnc(NCC4SCCS4)c23)cc1 | 80.2 mL/min/kg
Cc1cccc(Oc2cc(CN)ccn2)c1C | ≤ 4.74 mL/min/kg

Inquiry: Supply recorded intrinsic clearance, human liver microsomes for Clc1ccc(COc2cccc(N3CCNCC3)c2)cc1 here.
Reply text: 5.23 mL/min/kg

Inquiry: Quote intrinsic clearance, human liver microsomes reported for C/C=C/CC(=O)N1CCC(c2cc(Cc3ccccc3)n[nH]2)CC1 please.
Reply text: 52 mL/min/kg

All figures here come from the Biogen ADME set (Fang et al. 2023).
